- TEST_TARGET: 5-HT2 receptor (Rattus norvegicus)
- Sequence (P14842 whole entry): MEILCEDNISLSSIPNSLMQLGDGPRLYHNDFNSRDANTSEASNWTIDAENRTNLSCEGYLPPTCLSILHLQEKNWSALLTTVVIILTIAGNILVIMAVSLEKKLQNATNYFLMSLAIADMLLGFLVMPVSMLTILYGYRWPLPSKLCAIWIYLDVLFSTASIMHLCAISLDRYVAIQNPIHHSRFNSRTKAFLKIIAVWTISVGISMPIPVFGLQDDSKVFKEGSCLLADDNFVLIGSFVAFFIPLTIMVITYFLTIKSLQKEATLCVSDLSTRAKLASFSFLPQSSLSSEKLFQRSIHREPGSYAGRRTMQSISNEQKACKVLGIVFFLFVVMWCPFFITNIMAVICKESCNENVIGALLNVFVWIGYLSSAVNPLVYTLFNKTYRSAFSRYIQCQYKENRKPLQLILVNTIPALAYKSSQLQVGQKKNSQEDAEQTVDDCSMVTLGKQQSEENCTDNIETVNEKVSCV
- METHOD: 5-HT2 radioligand binding assay ([3H]ketanserin displacement)
- Design: species or system rat (Sprague-Dawley cerebral cortex)
Counter-ions that a name gives are not always drawn.

COMPOUND: COc1ccc(CC2NCCc3c2[nH]c2ccc(C4CCCCC4)cc32)cc1OC (centres unmarked) [Example 11, hydrochloride]
TEST_TARGET: 5-HT2 receptor (Rattus norvegicus)
COMPARISON_SYMBOL: >
IC50 (µM): 1
--
COMPOUND: COc1ccc(CC2NCCc3c2[nH]c2c(Br)c(C)ccc32)cc1OC.Cl (centres unmarked) [Example 7, hydrochloride]
TEST_TARGET: 5-HT2 receptor (Rattus norvegicus)
COMPARISON_SYMBOL: >
IC50 (µM): 0.1
--
COMPOUND: COc1ccc(CC2NCCc3c2[nH]c2ccc(C)c(F)c32)c(Cl)c1OC (centres unmarked) [Example 38, hydrochloride]
TEST_TARGET: 5-HT2 receptor (Rattus norvegicus)
COMPARISON_SYMBOL: >
IC50 (µM): 0.1
--
COMPOUND: COc1ccc(CC2NCCc3c2[nH]c2ccc(C)cc32)cc1F (centres unmarked) [Example 34, hydrochloride]
TEST_TARGET: 5-HT2 receptor (Rattus norvegicus)
COMPARISON_SYMBOL: =
IC50 (µM): 0.25
--
COMPOUND: COc1cc(CC2NCCc3c2[nH]c2ccc(C)cc32)cc([N+](=O)[O-])c1OC (centres unmarked) [Example 28, hydrochloride]
TEST_TARGET: 5-HT2 receptor (Rattus norvegicus)
COMPARISON_SYMBOL: =
IC50 (µM): 1
--
COMPOUND: Cc1ccc2[nH]c3c(c2c1)CCNC3Cc1ccc(C)c(C)c1 (centres unmarked) [Example 35, hydrochloride]
TEST_TARGET: 5-HT2 receptor (Rattus norvegicus)
COMPARISON_SYMBOL: >
IC50 (µM): 0.1
--
COMPOUND: COc1ccc(CC2NCCc3c2[nH]c2ccc(C)cc32)c(OC)c1 (centres unmarked) [Example 24, hydrochloride]
TEST_TARGET: 5-HT2 receptor (Rattus norvegicus)
COMPARISON_SYMBOL: =
IC50 (µM): 0.074
--
COMPOUND: Cc1ccc2[nH]c3c(c2c1)CCNC3CC1CCCCC1 (centres unmarked) [Example 39, hydrochloride]
TEST_TARGET: 5-HT2 receptor (Rattus norvegicus)
COMPARISON_SYMBOL: =
IC50 (µM): 0.62
